- Tested on: M19-MEL
- Assay: NCI tumour cell line growth inhibition, 48 h
Calls of active or inactive are those of the source. Cut-off read from the data, not from the text of the source: active = GI50 up to about 1.1 µM and inactive = higher.
Your reply should match one of these outcome classes. 1 (yes) (active), 0 (no) (inactive)

Would you mind telling me which call this test gave COC(=O)CCC(NC(=S)N/N=C(\C)c1cccs1)C(=O)OC (stereo unspecified) ?
0 (no)

Would you mind telling me which call this test gave NNc1nnc(-c2ccccc2)nc1Cc1ccccc1 ?
0 (no)

Would you mind telling me which call this test gave CN(C)CCCCN1CCc2c(n(C)c3ccccc23)C1=O ?
0 (no)

Would you mind telling me which call this test gave CC(C)(O)[C@H](CCO)O[Si](c1ccccc1)(c1ccccc1)C(C)(C)C ?
0 (no)

Would you mind telling me which call this test gave CC(=O)OC(C)(C)/C=C/C(=O)[C@](C)(O)[C@H]1[C@H](O)C[C@@]2(C)[C@@H]3CC=C4[C@@H](C=C(O)C(=O)C4(C)C)[C@]3(C)C(=O)C[C@]12C ?
1 (yes)

Would you mind telling me which call this test gave CC(=O)OC1(C#N)CC2OC1C1C2N=NN1C(=O)OC(C)(C)C (stereo unspecified) ?
0 (no)

Would you mind telling me which call this test gave C[C@@H]1C2=CC[C@@]3(C)C(CCC3[C@H](C)[C@H]3C[C@@]4(C)O[C@@](c5cccnc5)(O3)OC4(C)C)[C@@H]2C2OC2[C@@]12CCC(=O)O2 (stereo partly specified) ?
0 (no)

Would you mind telling me which call this test gave CCCCOC(=O)/C(CC(=O)C=C(C)C)=N\NS(=O)(=O)c1ccc(C)cc1 ?
0 (no)

Would you mind telling me which call this test gave CC(=O)N1CC2Nc3ccccc3C2CC1CO (stereo unspecified) ?
0 (no)

Would you mind telling me which call this test gave NC(=O)c1cn(Cc2ccccc2)c(=O)n1Cc1ccccc1 ?
0 (no)

Would you mind telling me which call this test gave CCOC(=O)C(=O)Nc1ccccc1C ?
0 (no)

====

- Tested on: SNB-19
- Assay: NCI tumour cell line growth inhibition, 48 h
Active and inactive are the calls of the source. Rule as the data show it: active = GI50 up to about 1.1 µM and inactive = higher.
Would you mind telling me the reported GI50 of each entry?

// GI50 lookup, key: OC1CCC[C@@H]1Sc1ccccc1 (stereo partly drawn)
> 100 µM (inactive)

// GI50 lookup, key: COC(=O)[C@@H]1CC(C(C[N+](=O)[O-])c2ccc(O[Si](C)(C)C(C)(C)C)cc2)C(=O)N1C(=O)OC(C)(C)C (stereo partly drawn)
> 100 µM (inactive)

// GI50 lookup, key: CCOC(=O)Cn1c(=O)c2nc(SC)sc2n(-c2ccccc2)c1=S
13.4 µM (inactive)

====

- Test system: SNB-75
- Assay: NCI tumour cell line growth inhibition, 48 h
Calls of active or inactive are those of the source. Rule as the data show it: active = GI50 up to about 1.1 µM and inactive = higher.
Readout label: GI50

Which measured GI50 belongs to O=C(NCCCCNCCCNC(=O)C(F)(F)F)C(F)(F)F , tested on SNB-75?
> 100 µM (inactive)

Which measured GI50 belongs to O=c1c2ccccc2nc(-c2ccccc2Cl)n1NCC1(O)OCC(O)C(O)C1O (stereo not drawn) , tested on SNB-75?
62.2 µM (inactive)

Which measured GI50 belongs to CCOC(=O)C1=C(C)N(Cc2ccccc2)C(=O)C1CC#N (stereo not drawn) , tested on SNB-75?
55.2 µM (inactive)

Which measured GI50 belongs to CCOc1ccc2nc3cc(/N=N/c4ccc(N)nc4N)ccc3c(N)c2c1 , tested on SNB-75?
1.41 µM (inactive)

Which measured GI50 belongs to Cn1c(=O)c2c(ncn2Cc2ccc(O)c([N+](=O)[O-])c2)n(C)c1=O , tested on SNB-75?
> 100 µM (inactive)

Which measured GI50 belongs to Nc1ccccc1[S+]([O-])c1ccccc1 (stereo not drawn) , tested on SNB-75?
> 100 µM (inactive)

Which measured GI50 belongs to O=C1/C(=C/c2ccco2)NC(=S)N1CN1CCCCC1 , tested on SNB-75?
58.5 µM (inactive)

Which measured GI50 belongs to CCC1(c2ccc(OC)c(OC)c2)CCN2C(=O)C(O)CC21 (stereo not drawn) , tested on SNB-75?
> 100 µM (inactive)

Which measured GI50 belongs to CN(/N=C/c1ccccc1C(=O)O)C1=NCCCCN1 , tested on SNB-75?
> 100 µM (inactive)

Which measured GI50 belongs to CCc1nc2cc3cccnc3c(Cl)c2[nH]c1=O , tested on SNB-75?
17.8 µM (inactive)

Which measured GI50 belongs to COc1cc(/C=C2/SC(c3ccccc3)N(c3ccc(Cl)cc3)C2=O)cc(OC)c1OC (stereo not drawn) , tested on SNB-75?
95.3 µM (inactive)

Which measured GI50 belongs to Cn1c2c(c3ccccc31)CCN(CCCCN1CCN(c3ccccc3)CC1)C2=O , tested on SNB-75?
44.8 µM (inactive)

Which measured GI50 belongs to O=C(/C=C\c1ccccc1-c1ccccc1)c1ccccc1 , tested on SNB-75?
61.8 µM (inactive)

====

- Test system: TK-10
- Assay: NCI tumour cell line growth inhibition, 48 h
Active and inactive are the calls of the source. Cut-off read from the data, not from the text of the source: active = GI50 up to about 1.1 µM and inactive = higher.
Would you mind telling me the reported GI50 of each entry?

// GI50 lookup, key: Cc1cc(=O)n(-c2c(C)cccc2Cl)c(/C=C(\O)c2ccncc2)n1
> 100 µM (inactive)

// GI50 lookup, key: Cc1cc(C)c2c(c1)CN1CN2Cc2cc(C)cc(C)c21
19 µM (inactive)

// GI50 lookup, key: Cc1nc2c(s/c(=N\N)n2-c2ccccc2)c(=O)[nH]1
> 100 µM (inactive)

// GI50 lookup, key: N#CC(C(=O)CCC(=O)Nc1cccc(C(F)(F)F)c1)c1ccc(Cl)cc1 (stereo not drawn)
> 100 µM (inactive)

// GI50 lookup, key: CCOc1ccc2nc3cc(/N=N/c4ccc(N)nc4N)ccc3c(N)c2c1
13.9 µM (inactive)

// GI50 lookup, key: CCCCCCCCCCCCCCCCOCC(Cl)CP(=O)(O)OP(=O)(O)OCC1OC(n2cnc3c(N)ncnc32)C(O)C1O (stereo not drawn)
> 100 µM (inactive)

// GI50 lookup, key: CC1(C(=O)Nc2ccc3ccccc3c2)CC2(C)CC(C)(C1)C(O)NC2=O (stereo not drawn)
> 100 µM (inactive)

// GI50 lookup, key: CCCCC(C)/C=C/C(O)=C1\C(=O)O/C(=C\C(=O)O)C1=O (stereo not drawn)
> 100 µM (inactive)

====

- Tested on: HCT-116
- Assay: NCI tumour cell line growth inhibition, 48 h
The source made the active and inactive calls. Rule as the data show it: active = GI50 up to about 1.1 µM and inactive = higher.
Your reply should match one of these outcome classes. True (active), False (inactive)

Would you mind telling me which call this test gave O=C1C(Cl)=C(Cl)C(=O)N1c1cccc(C(F)(F)F)c1 ?
False

Would you mind telling me which call this test gave Nc1ccccc1NC(=O)c1ccc(CNC(=O)OCc2cccnc2)cc1 ?
True

Would you mind telling me which call this test gave Cc1nn(C(=O)c2ccncc2)c2c1C(c1ccccc1O)SC(=N)N2 (centres undefined) ?
False

Would you mind telling me which call this test gave COc1ccc(/C=C2\N/C(=N/N)N=C2Cl)cc1 ?
False

Would you mind telling me which call this test gave CCC1(O)C(=O)OCc2c1cc1n(c2=O)Cc2cc3ccc(CO)cc3nc2-1 (centres undefined) ?
False

Would you mind telling me which call this test gave O=C(Cc1ccccc1)NS(=O)(=O)c1ccccc1 ?
False

Would you mind telling me which call this test gave C#CCOC(=O)C(N)CS (centres undefined) ?
False

Would you mind telling me which call this test gave C=C1C(=O)O[C@H]2C1C[C@H](O)[C@@]1(C)OC1CC[C@@]1(C)O[C@H]21 (some centres undefined) ?
False

Would you mind telling me which call this test gave COC(=O)[C@@H]1CC(C(C[N+](=O)[O-])c2ccc(O[Si](C)(C)C(C)(C)C)cc2)C(=O)N1C(=O)OC(C)(C)C (some centres undefined) ?
False

Would you mind telling me which call this test gave Cc1nc2ccccc2c(=O)n1/N=C(\N=N\c1ccccc1Cl)c1ccccc1Cl ?
False

Would you mind telling me which call this test gave COc1cc2c(cc1OC)C1C(O)C(OC)C(Br)C3(Br)CCN(C2)C13 (centres undefined) ?
False

Would you mind telling me which call this test gave CC(=O)N1CC2Nc3ccccc3C2CC1CO (centres undefined) ?
False

Would you mind telling me which call this test gave C[C@@H]1C[C@H](O)[C@]2(O)O[C@@H]3C[C@@]4(C=O)[C@@H](CC[C@@H]5[C@@H]4CC[C@]4(C)[C@@H](C6=CC(=O)OC6)CC[C@]54O)C[C@H]3O[C@@H]2O1 ?
True

Would you mind telling me which call this test gave COc1ccc(/N=c2/oc3ccccc3cc2C(N)=O)cc1 ?
False

====

Would you mind telling me the reported GI50 of each entry?
- Test system: K562
- Assay: NCI tumour cell line growth inhibition, 48 h
Calls of active or inactive are those of the source. No stated cut-off is given here; in the data, active = GI50 up to about 1.1 µM and inactive = higher.

// GI50 lookup, key: CCOP(=O)(OCC)OC1c2[nH]ccc2-c2cc(C(=O)OC)[nH]c2C1OC (stereo not given)
> 100 µM (inactive)

// GI50 lookup, key: CCCCC[C@H]1CCCCCCCCCC(=O)OC2C(O[C@@H]3OC(C)[C@H](OC(=O)[C@@H](C)CC)C(O[C@@H]4OC(C)[C@H](O)C(O)[C@@H]4O)[C@@H]3OC(=O)[C@H](C)CC)[C@H](OC3C(O)[C@@H](O)C(C)O[C@H]3O1)OC(CO)[C@H]2O (stereo not given in full)
18.8 µM (inactive)

// GI50 lookup, key: CCOC(=O)c1cnc(-n2[nH]c3c(c2=O)CCCC3)[nH]c1=O
20.7 µM (inactive)

// GI50 lookup, key: CCOP(=O)(O)CN1CCNCCN(CP(=O)(O)OCC)CCNCC1
> 100 µM (inactive)

// GI50 lookup, key: CC(=O)C1CC2(c3ccccc3)C(=O)c3ccccc3N2O1 (stereo not given)
> 100 µM (inactive)

// GI50 lookup, key: O=C1Nc2ccccc2/C1=N/Nc1ccccc1Cl
43.5 µM (inactive)

// GI50 lookup, key: CC(C)(O)[C@H](CCO)O[Si](c1ccccc1)(c1ccccc1)C(C)(C)C
7.74 µM (inactive)

// GI50 lookup, key: O=C1CC2(CCN(CC3COc4ccccc4O3)CC2)C(=O)N1N1CCCCCC1 (stereo not given)
15.6 µM (inactive)

// GI50 lookup, key: COC(=O)C1C(C(=O)OC)N(Cc2ccccc2)C(=O)N1Cc1ccccc1 (stereo not given)
45.6 µM (inactive)

// GI50 lookup, key: COc1cc(Nc2n[nH]c(NS(=O)(=O)c3cc(C)c(Cl)cc3S)n2)cc(OC)c1OC
> 100 µM (inactive)
